tested on: MS2 coat protein; experiment: apparent Kd, MS2 coat protein; higher = weaker binding; RNA-MaP array; FMN 200 µM where present; conditions: ligand present: flavin mononucleotide; designed as: OFF switch for flavin mononucleotide
Each record here notes measured apparent Kd.
Test readout: apparent Kd

- CAGCGUACCAGAGGAUAUGAUUGUGGGUAAAGAGCGCUUAGGUGGCUACAUGAGGAUCACCCAUGUCAGAAGGCUGGAGUUCAA: 0.129 µM
- UCCGUGGCAUCUCGCGCGUGUCCACAUGAGGAUCACCCAUGUCAGGAUAUACGGAAUGUCGUUCCGUAGAAGGGACAAGGGCUG: 0.108 µM
- CGUCCACAUGAGGAUCACCCAUGUGAGGAUAUCCAUACCCACAACCAAUACACAUUAUGGAGAAGGCACACACA: 0.0199 µM
- GCUGCAUAGGCAGGAUAUGCAACAAUUCGAAUAAAAUAUAACGAAUUGACAUGAGGAUCACCCAUGUAGAAGGGCCUGUGCAGU: 0.02 µM
- CCAUGCAGUGUGAGGAUAUGCUGGUCCUUGGAUCAGCAGAAGGCACAUGAGGAUCACCCAUGUGAAUAGCGUGG: 0.356 µM
- GCAUGGUAUGAGAAGGCAUAAUUUAUCUAACAACAUGAUUACAUGAGGAUCACCCAUGUUUCCAAUGAGGAUAUCAUACCGUGC: 0.00712 µM
- GAUCAACAUGAGGAUCACCCAUGUGAGGAUAUGGACUUGCCCACUUAACCAUUAGAGUCUAGAAGGCGCAUCUA: 0.0299 µM
- GUAAACGAUCAGGAUAUAUCAAAUAAUAGCUUGAUAGAAGGGAUCACAUGAGGAUCACCCAUGUGAUCUUCUUU: 0.0148 µM
- GAUAGGACAGAGAAGGACGUAGCUAGAGAUACUAGCAUAAAGUCUUCAACAUGAGGAUCACCCAUGUAGGAUAUCUGUCCUAUC: 0.00664 µM
- GGGUUACAUGAGGAUCACCCAUGUGAGGAUAUGAUACUAUGUACUUCGGUACAUAGUAUCAGAAGGCACAUAAA: 0.122 µM
- CUUUUGUGAGGAUAUCAGUAGUAUAUAAAUAAAAUUACUACUGAGAAGGCACAUGAGGAUCACCCAUGUUCCUC: 0.164 µM
- GCUGAUGCAGGAUAUAUAUGAAGCGUUCGAAUAGAAUGCGAACAUGAGGAUCACCCAUGUAGAAGGGCAUUGGC: 0.0201 µM
- AAAAAACAUGAGGAUCACCCAUGUAAGGAUAUGCAAAAAAAAAAAAAAAAAAAAAAAAGCAGAAGGUACAAAAA: 0.062 µM
- CAUCAGUGUUAAGGAUAUGGCAGCGGAAGCGCACCAGAAGGUAGCACAUGAGGAUCACCCAUGUGUUCUGGCUUGAGCGUGAUC: 0.0752 µM
- GGAAAUCAUGUAGGAUAUGCAUGGCGAAGCUACGCAGAAGGACAUGAGGAUCACCCAUGUUCUAGCUACCGAGUUCGGUGGCAA: 0.114 µM
- GUGCAGAUGUAAGGAUAUCGACUGGAUAACAGUCGAGAAGGUACAUGAGGAUCACCCAUGUAAAUGAAAGAUAAUAAACUGCAC: 0.0249 µM
- GCAUCGUCGACUGAUAAUGAGCCUAGAAGGCGGACAUGAGGAUCACCCAUGUCUGAUCCUCGGCCCGAGGAUAUAGGUUAAUGA: 0.00865 µM
- ACGCUCAGAGGAUAUACAUGAGGAUCACCCAUGUGUUACCGAGGAGUACGGUCGUCACGUAGAAGGCUGGGUAA: 0.0632 µM
- UACAGACAUGAGGAUCACCCAUGUGAGGAUAUCCAUAACGAUAUUACAAGUAUGACAGGGAGAAGGCACAGCAA: 0.052 µM
- CGGUGCUGAGGAUAUACAUGAGGAUCACCCAUGUGUGCCAGCUAGAAGACUGGCACUUGUAGAAGGCAGUACUG: 0.0205 µM
- CUUUUGUGAGGAUAUCAGUAGUAAUAUAAUAGUAUUACUACUGAGAAGGCACAUGAGGAUCACCCAUGUUCCUC: 0.0503 µM
- UGAUAGCACAGAGGAUAUGCGUAGAGUUAUCACUACAUGAGGAUCACCCAUGUAGAAGGCUGUGCUAUCUAAGUCGGAAACGAC: 0.00617 µM
- AGAAACUACGAGAAGGACAUAUGGUUCUUCAGAUACAUGAGGAUCACCCAUGUAGGAUAUCGUAGUUUCAGGAUCGUGAGAUCA: 0.00968 µM
- UUUUUUGUUGUGAGGAUAUCGUAUUUUUUUUGUUACGAGAAGGCACAUGAGGAUCACCCAUGUUUUUUGAUGUU: 0.0567 µM
- UACGGACAUGAGGAUCACCCAUGUGAGGAUAUCGGUACCGAUAGCAUAAUAUACUCGGCGAGAAGGCACAGCGU: 0.0318 µM
- CGAUGUUAUGUCAGGAUAUACAUUGCGAAAGCAAUGUAGAAGGGACAUGAGGAUCACCCAUGUCCUAACCAUCG: 0.0171 µM
- GUGGCUAGUGCAGGAUAUUAGCGCGUGUAGUGUUGAGAAGGGCACAUGAGGAUCACCCAUGUGAUCAAUCACUGUUAAGGUCGC: 0.0253 µM
- CGAUAUACGAUGGACGGAAACGUACAUGAGGAUCACCCAUGUAGAAGGCGAUCCGCAACGCGGAUUGAGGAUAUAUACCACACA: 0.0233 µM
- GCGAGUAAAGCAGGAUAUCUAUUGUCUCGGAAACAUGAGGAUCACCCAUGUAGAGAAGGGCUAAGUCAUACAAUUCGAACUCGC: 0.0108 µM

The measured values listed here are drawn from the EternaBench riboswitch data.
